# procedure_details: Blood clearance in Sprague-Dawley rat at 10 mg/kg, iv and 30 mg/kg, po
# Format: ADME, organism-based
# condition_parameters: whole blood
Below, each of the compounds is paired with its reported clearance value.
Dear colleague, please return just the value in mL/min/kg, with no unit written.

Some solved entries appear below for comparison.
chemical_smiles	units_symbol	clearance
CC[C@H]1OC(=O)[C@H](C)[C@@H](O[C@H]2C[C@@](C)(OC)[C@@H](O)[C@H](C)O2)[C@H](C)[C@@H](O[C@@H]2O[C@H](C)C[C@H](N(C)C)[C@H]2O)[C@](C)(O)C[C@@H](C)CN(CCCNC(=S)NCCCc2ccccc2)[C@H](C)[C@@H](O)[C@]1(C)O	mL/min/kg	2.3
CC[C@H]1OC(=O)[C@H](C)[C@@H](O[C@H]2C[C@@](C)(OC)[C@@H](O)[C@H](C)O2)[C@H](C)[C@@H](O[C@@H]2O[C@H](C)C[C@H](N(C)C)[C@H]2O)[C@](C)(O)C[C@@H](C)CN(C)[C@H](C)[C@@H](O)[C@]1(C)O	mL/min/kg	11
CC[C@H]1OC(=O)[C@H](C)[C@@H](O[C@H]2C[C@@](C)(OC)[C@@H](O)[C@H](C)O2)[C@H](C)[C@@H](O[C@@H]2O[C@H](C)C[C@H](N(C)C)[C@H]2O)[C@](C)(O)C[C@@H](C)CN(CCCN(CCC#N)C(=S)NCCCc2ccccc2)[C@H](C)[C@@H](O)[C@]1(C)O	mL/min/kg	24.5
CC[C@H]1OC(=O)[C@H](C)[C@@H](O[C@H]2C[C@@](C)(OC)[C@@H](O)[C@H](C)O2)[C@H](C)[C@@H](O[C@@H]2O[C@H](C)C[C@H](N(C)C)[C@H]2O)[C@](C)(O)C[C@@H](C)CN(CCCN(CCC#N)C(=O)Nc2ccc(Cl)cc2Cl)[C@H](C)[C@@H](O)[C@]1(C)O	mL/min/kg	7.7

Record request: clearance value, item CC[C@H]1OC(=O)[C@H](C)[C@@H](O[C@H]2C[C@@](C)(OC)[C@@H](O)[C@H](C)O2)[C@H](C)[C@@H](O[C@@H]2O[C@H](C)C[C@H](N(C)C)[C@H]2O)[C@](C)(O)C[C@@H](C)CN(CCCNC(=S)NCc2ccccc2)[C@H](C)[C@@H](O)[C@]1(C)O
4
